Tested on: RXF 393 renal
Test: NCI-60 one-dose screen, 48 h
Settings: 10 µM unless noted
Compounds without any hit were thinned out: in the full panel of roughly 83,000, 20% have a hit. The source made the active and inactive calls. Rule for the calls: active = growth percent below 10; inactive = the rest.
Labels: yes (1) = active, no (0) = inactive

Compound: CCc1ccccc1-n1c(N)c(C#N)c(-c2ccc(N(C)C)cc2)c(C#N)c1=O
Label class: no (0)
--
Compound: N#Cc1c(-c2cccc(Cl)c2)cc(-c2cccc(Cl)c2)[nH]c1=O
Label class: no (0)
--
Compound: COCCc1ccc(OCC(O)CNC(C)C)cc1 (centres undefined)
Label class: no (0)
--
Compound: O=C(CCCCCCN1CC(=O)N2[C@@H](c3ccccc3Cl)c3[nH]c4ccccc4c3C[C@H]2C1=O)NO
Label class: no (0)
--
Compound: N#Cc1nc(C#N)c(Sc2ccccc2)c(Sc2ccccc2)c1Sc1ccccc1
Label class: yes (1)
--
Compound: O=C(Nc1cccc2c(O)c(N=Nc3ccc(S(=O)(=O)Nc4nccs4)cc3)cc(N=Nc3ccc(S(=O)(=O)Nc4nccs4)cc3)c12)C(Cl)Cl
Label class: no (0)
--
Compound: COc1ccccc1NC(=O)N/C(N)=N/c1nc2ccccc2s1
Label class: yes (1)
--
Compound: COc1cccc(-c2nc3sccn3c2-c2ccnc(NCCNS(=O)(=O)c3cccc(Cl)c3)c2)c1
Label class: no (0)
--
Compound: C#CCOc1nc(C)cc(C)c1C#N
Label class: no (0)
--
Compound: Cc1c(C(=O)N[C@@H](Cc2ccccc2)C(=O)C(=O)NCCc2ccccc2)[nH]c2ccccc2c1=O
Label class: no (0)
--
Compound: NC(=S)N/N=C/Cc1ccccc1
Label class: no (0)
--
Compound: O=C1CCC2=C3C4CCCCC4C(=O)C4CCCC(OC2C1)C34 (centres undefined)
Label class: yes (1)
--
Compound: Cc1ccc2nc(NC(=O)CSc3nc(-c4ccccc4)c(C#N)c(=O)n3Cc3ccccc3)sc2c1
Label class: no (0)
--
Compound: Cc1cc(C(=O)c2ccccc2)c(C)c2c1[nH]c1ccc(Cl)cc12
Label class: no (0)

====

Tested on: SF-539 CNS
Assay: NCI-60 one-dose screen, 48 h
Conditions: 10 µM unless noted
This is part of a sample that, as a whole, favours compounds with a hit. Of some 83,000 tested, about 20% had one in any assay. Active and inactive are the calls of the source. The calls were made as follows: active = growth percent below 10; inactive = the rest.
Labels: yes (1) (active), no (0) (inactive)

Compound: O=C(N/N=C/c1ccncc1)c1ccc(C(F)(F)F)nc1Nc1cccc(C(F)(F)F)c1
Label class: no (0)
--
Compound: COc1cccc2c1C(=O)c1c(O)c3c(c(O)c1C2=O)CC(O)(/C(C)=N/NC(=O)CCCCC(=O)N/N=C(\C)C1(O)Cc2c(O)c4c(c(O)c2C(OC2CC(N)C(O)C(C)O2)C1)C(=O)c1c(OC)cccc1C4=O)CC3OC1CC(N)C(O)C(C)O1 (stereo not drawn)
Label class: yes (1)
--
Compound: Cc1nc2ccccc2n1CC1NC(=O)NC1=O (stereo not drawn)
Label class: no (0)
--
Compound: O=C(NCCCNc1cc(-c2cn(-c3ccccc3)nc2-c2cccc(O)c2)ccn1)c1ccc(F)cc1
Label class: no (0)
--
Compound: COc1cc(C2CC(=O)Nc3c2c(C)nn3-c2nc3ccccc3[nH]2)c(OC)c(OC)c1OC (stereo not drawn)
Label class: no (0)
--
Compound: C(=N\Nc1ncc(-c2cc3cc4c(cc3o2)OCO4)s1)/c1ccco1
Label class: yes (1)
--
Compound: COc1cc(C2CC(=O)Nc3c2c(C)nn3-c2nc3ccccc3[nH]2)c(OC)c2c1OCO2 (stereo not drawn)
Label class: no (0)
--
Compound: CN(Cc1cnc2nc(N)nc(N)c2n1)c1ccc(C(=O)N[C@@H](CCc2nn[nH]n2)c2nn[nH]n2)cc1
Label class: no (0)
